# Test system: MDA-MB-435
# method.notes: NCI tumour cell line growth inhibition, 48 h
The source made the active and inactive calls. Rule as the data show it: active = GI50 up to about 1.1 µM and inactive = higher.
readout: GI50

Give measured GI50 for CC(C)C(=O)/C=C/c1c(Cl)cccc1Cl (MDA-MB-435). 3.08 µM (inactive)

Give measured GI50 for C=CCNC1=C2C[C@@H](C)C[C@@H](OC)[C@@H](OC(=O)CCCN)[C@H](C)/C=C(\C)[C@@H](OC(N)=O)[C@H](OC)/C=C\C=C(/C)C(=O)NC(=CC1=O)C2=O (MDA-MB-435). 20.3 µM (inactive)

Give measured GI50 for CN(C1=NCCO1)c1cccc2c1CCCC2 (MDA-MB-435). 3.64 µM (inactive)

Give measured GI50 for CCCCNC(=S)Nc1nc(C(=O)NNC(=O)c2ccccc2)cs1 (MDA-MB-435). 19.7 µM (inactive)

Give measured GI50 for c1cc(-c2sc(-c3ccncc3)c(-c3ccncc3)c2-c2ccncc2)ccn1 (MDA-MB-435). 14.6 µM (inactive)

###

# Tested on: SW-620
# method.notes: NCI tumour cell line growth inhibition, 48 h
Active and inactive are the calls of the source. No stated cut-off is given here; in the data, active = GI50 up to about 1.1 µM and inactive = higher.
readout: GI50

Give reported GI50 value for CCCCNC(=S)Nc1nc(C(=O)NNC(=O)c2ccccc2)cs1 14 µM (inactive)

Give reported GI50 value for NC1=NN(c2ccccc2)C(=O)C1/C(=N\NC(=O)c1cc2ccccc2cc1O)C(=O)Nc1cccc(C(F)(F)F)c1 (stereo not given) 34.7 µM (inactive)

Give reported GI50 value for CC(=O)Nc1ccc(/N=C2\C(c3ccccc3)=C(SC3=C(c4ccccc4)/C(=N\c4ccc(NC(C)=O)cc4)c4ccccc43)c3ccccc32)cc1 40.2 µM (inactive)

Give reported GI50 value for CCCCNC(=O)OCCN=c1c2ccccc2ccc2ccccc12 > 100 µM (inactive)

Give reported GI50 value for COC(=O)C1(C(=O)OC)N=C(C)OC1C(C)C (stereo not given) > 100 µM (inactive)

###

Assignment: determine reported GI50 for the given compounds.
# Tested on: SF-268
# method.notes: NCI tumour cell line growth inhibition, 48 h
Active and inactive are the calls of the source. Cut-off read from the data, not from the text of the source: active = GI50 up to about 1.1 µM and inactive = higher.

Give measured GI50 for CC(C)=C[C@H]1CCC2(OCCO2)[C@]1(C)CO (SF-268). > 100 µM (inactive)

Give measured GI50 for COC(=O)CCC1=C(CC(=O)OC)C(C)(OC)N/C1=N/C(=O)OCc1ccccc1 (stereo not given) (SF-268). > 100 µM (inactive)

Give measured GI50 for CO[C@@H]1C[C@H]2[C@@H]3CC[C@H]([C@@H](C)CO)[C@@]3(C)CC[C@@H]2[C@@]2(C)CC[C@H]3C[C@]312 (SF-268). 67 µM (inactive)

Give measured GI50 for CCOC(=O)/C(C#N)=C/N(CC)/N=C/c1ccccc1 (SF-268). > 100 µM (inactive)

Give measured GI50 for COc1ccc2c(c1OC)C[C@@H]1c3c(cc4c(c3-2)OCO4)CCN1C (SF-268). 37.1 µM (inactive)

###

# Tested on: HCT-116
# method.notes: NCI tumour cell line growth inhibition, 48 h
Active and inactive are the calls of the source. Rule as the data show it: active = GI50 up to about 1.1 µM and inactive = higher.
Could you please pick one outcome from this set? active, inactive

Short answer needed: outcome of this test for COC(=O)[C@@H]1C[C@H]2OC(=O)CC[C@]2(C)O[C@H]1[C@H]1O[C@@](C)(O)CCC[C@H]1C ? inactive

Short answer needed: outcome of this test for CCC(C)C(N)C(=O)NC(CC(N)=O)C(=O)NC(CC(C)C)C(=O)NC(CCCCN)C(=O)NC(C)C(=O)NC(CC(C)C)C(=O)NC(C)C(=O)NC(C)C(=O)NC(CC(C)C)C(=O)NC(C)C(=O)NC(CCCCN)C(=O)NC(CCCCN)C(=O)NC(C(=O)NC(CC(C)C)C(N)=O)C(C)CC (configuration not stated) ? inactive

Short answer needed: outcome of this test for N#C/C(c1nc2ccccc2[nH]1)=c1\s/c(=C/c2ccccc2)c(=O)n1-c1ccccc1 ? inactive

Short answer needed: outcome of this test for Cc1cc(=O)oc2c(CN3CCCCC3)c(O)ccc12 ? inactive

Short answer needed: outcome of this test for NC(CCCCNC(=O)OCc1ccccc1)C(=O)NC(CCCCNC(=O)OCc1ccccc1)C(=O)ON1C(=O)CCC1=O (configuration not stated) ? inactive

Short answer needed: outcome of this test for COc1cc(O)c2c(=O)cc(C3(O)C=CC(=O)C=C3)oc2c1 ? active

Short answer needed: outcome of this test for Cc1cc2c3c(coc3c1-c1c(C)cc3c4c(coc14)C(=O)C(O)=C3C(C)C)C(=O)C(O)=C2C(C)C ? inactive

###

# System: COLO 205
# method.notes: NCI tumour cell line growth inhibition, 48 h
Activity calls are given as the source filed them. Cut-off read from the data, not from the text of the source: active = GI50 up to about 1.1 µM and inactive = higher.
Could you please pick one outcome from this set? active, inactive

Short answer needed: outcome of this test for O=C(NC1CCN(Cc2ccccc2)CC1)c1cccc(I)c1 ? inactive

Short answer needed: outcome of this test for CC1=C(C)C(=O)C2=C(OCCCO2)C1=O ? inactive

Short answer needed: outcome of this test for Nc1nc2cc(CNc3ccc(C(=O)NC(CCC(=O)O)C(=O)O)cc3)ccc2nc1-c1ccccc1 (stereo not given) ? inactive

Short answer needed: outcome of this test for CC1(C)C(=O)C(C)(C)C1=NN ? inactive

Short answer needed: outcome of this test for C=CCNC1=C2C[C@@H](C)C[C@@H](OC)[C@H](OC(=O)CN)[C@H](C)/C=C(\C)[C@@H](OC(N)=O)[C@H](OC)/C=C\C=C(/C)C(=O)NC(=CC1=O)C2=O ? active

###

# Test system: CAKI-1
# method.notes: NCI tumour cell line growth inhibition, 48 h
Activity calls are given as the source filed them. Rule as the data show it: active = GI50 up to about 1.1 µM and inactive = higher.
Assignment: determine reported GI50 for the given compounds.

Give reported GI50 value for CC(=O)Nc1ccc(/N=C2\C(c3ccccc3)=C(SC3=C(c4ccccc4)/C(=N\c4ccc(NC(C)=O)cc4)c4ccccc43)c3ccccc32)cc1 31.4 µM (inactive)

Give reported GI50 value for COc1cccc2c1C(=O)C1=C(C2=O)C(O)CC(C)(C)O1 (stereo not given) 50.7 µM (inactive)

Give reported GI50 value for CCOC(=O)C(NC(=O)C(CCCCNP(=O)(OCC)OCC)NC(=O)C(C)NC(C)=O)C(C)C (stereo not given) > 100 µM (inactive)

Give reported GI50 value for Cc1nc2ccccc2c(=O)n1Nc1ccc(C(=O)O)cc1 > 100 µM (inactive)

Give reported GI50 value for CCOCNC(=O)N(COCC)COCC > 100 µM (inactive)

###

Assignment: determine reported GI50 for the given compounds.
# System: 786-0
# method.notes: NCI tumour cell line growth inhibition, 48 h
The source made the active and inactive calls. No stated cut-off is given here; in the data, active = GI50 up to about 1.1 µM and inactive = higher.

Give reported GI50 value for CCCCCCCCCCCCCCCc1nnc(SCC(=O)O)[nH]1 18.5 µM (inactive)

Give reported GI50 value for Cc1ccc(S(=O)(=O)OC[C@@H]2CO2)cc1 > 100 µM (inactive)

Give reported GI50 value for C[C@]12CC[C@H]3[C@@H](CC=C4C[C@@H](N5CCCC5)CC[C@@]43C)[C@@H]1C[C@H](N1CCCCC1)[C@@H]2O 91.8 µM (inactive)

Give reported GI50 value for CC1=C(C(=O)Nc2cc(F)c(F)cc2F)C(c2cccc([N+](=O)[O-])c2)C(C(=O)Nc2ccccc2C(F)(F)F)=C(C)N1 (centres undefined) 17.3 µM (inactive)

###

# System: OVCAR-5
# method.notes: NCI tumour cell line growth inhibition, 48 h
Calls of active or inactive are those of the source. Rule as the data show it: active = GI50 up to about 1.1 µM and inactive = higher.
Assignment: determine reported GI50 for the given compounds.

Give reported GI50 value for Cc1cc(N(CCC#N)CCC#N)ccc1C(/N=N\c1ccc([N+](=O)[O-])cc1)=N\NC(=O)c1cc(Cl)ccc1O > 100 µM (inactive)

Give reported GI50 value for CC1=[N+](C)CCCN1C > 100 µM (inactive)

Give reported GI50 value for Cc1c(O)c(OC2OC(CO)C(O)C(O)C2O)cc2c1CC[C@@H]1C2(C)C(=O)C[C@]2(C)[C@@H]([C@@](C)(O)C(=O)CCC(C)(C)O)[C@H](O)C[C@@]12C (stereo partly drawn) > 100 µM (inactive)

Give reported GI50 value for CSC1(C)CC2C(CC1N1CCOCC1)C2(C)C (stereo not drawn) > 100 µM (inactive)

Give reported GI50 value for Cc1cc(=O)oc2c(OS(C)(=O)=O)c(OS(C)(=O)=O)ccc12 > 100 µM (inactive)

Give reported GI50 value for CCC(C)C(N)C(=O)NC(CC(N)=O)C(=O)NC(CC(C)C)C(=O)NC(CCCCN)C(=O)NC(C)C(=O)NC(CC(C)C)C(=O)NC(C)C(=O)NC(C)C(=O)NC(CC(C)C)C(=O)NC(C)C(=O)NC(CCCCN)C(=O)NC(CCCCN)C(=O)NC(C(=O)NC(CC(C)C)C(N)=O)C(C)CC (stereo not drawn) 14.6 µM (inactive)

Give reported GI50 value for COc1ccc2c(c1OC)C(=O)O[C@@H]2[C@H]1c2c(cc3c(c2OC)OCO3)CCN1C > 100 µM (inactive)

Give reported GI50 value for CS(=O)(=O)c1nc(-c2cc3c(c(S(C)(=O)=O)n2)CCCC3)cc2c1CCCC2 > 100 µM (inactive)

Give reported GI50 value for O=C(c1ccccc1)c1nc2ccc(Cl)cc2c2c1CCCO2 > 100 µM (inactive)

Give reported GI50 value for CCOP1(=O)C=CC(Cl)=C(C)C1 (stereo not drawn) 24.2 µM (inactive)

Give reported GI50 value for CCN(CC)CCNC(=O)c1ccccc1NC(=O)C(=O)Nc1ccccc1C(=O)NCCN(CC)CC 94 µM (inactive)

Give reported GI50 value for CCCC(OCC)(OCC)OCC > 100 µM (inactive)

Give reported GI50 value for Cc1c2cc[n+](C)cc2c(C)c2c1[nH]c1ccc(OC(C)C)cc12 12.9 µM (inactive)

Give reported GI50 value for CCSC(SCC)=C1C(=O)N(c2ccccc2)N=C1C 15.9 µM (inactive)

Give reported GI50 value for O=C1C(Br)=CC2([N+](=O)[O-])CCNC3=C(C4=NCCc5c[nH]c(c54)C3=O)C2=C1Br (stereo not drawn) 1.1 µM (active)

Give reported GI50 value for Oc1nc(S)nc2c1CN(CCCN1CCOCC1)CN2 > 100 µM (inactive)

Give reported GI50 value for Oc1ccc(Cc2cc(Cc3ccc(O)cc3)cc(Cc3ccc(O)cc3)c2)cc1 > 50 µM (inactive)

Give reported GI50 value for CN1CC=C(C#CC(C)(C)O)CC1 > 37.5 µM (inactive)

Give reported GI50 value for COC(=O)c1cccc(N[C@@H]2c3cc4c(cc3C(c3cc(OC)c(O)c(OC)c3)[C@H]3C(=O)OCC32)OCO4)c1 (stereo partly drawn) 6.67 µM (inactive)

Give reported GI50 value for Cc1nnc(Sc2nc(C#N)c(C#N)nc2Sc2nnc(C)s2)s1 17.2 µM (inactive)

Give reported GI50 value for CCOC(=O)c1ccc(-c2ccc(Cl)cc2)[nH]1 > 10 µM (inactive)

Give reported GI50 value for N=C(N)NS(=O)(=O)c1ccc(NNC(=O)c2cccc3c(O)c4ccccc4nc23)cc1 42.6 µM (inactive)

Give reported GI50 value for COc1cc(S(=O)(=O)Nc2ccc(-c3csc(N4C(=O)C(C)SC4c4cccs4)n3)cc2)ccc1Cl (stereo not drawn) > 100 µM (inactive)

Give reported GI50 value for NC(=O)c1c[se]c(C2OC(COP(=O)(O)CP(=O)(O)OCC3OC(n4cnc5c(N)ncnc54)C(O)C3O)C(O)C2O)n1 (stereo not drawn) > 100 µM (inactive)

Give reported GI50 value for COc1cc2c(cc1O)C=NCC2 > 100 µM (inactive)

Give reported GI50 value for NC1=NN(c2ccccc2)C(=O)C1/C(=N\NC(=O)c1cc2ccccc2cc1O)C(=O)Nc1cccc(C(F)(F)F)c1 (stereo not drawn) 26.2 µM (inactive)

Give reported GI50 value for CCOC(=O)C1=CC(C)(C(=O)OCC)Nc2c(nc(SC)[nH]c2=O)N1 (stereo not drawn) > 10 µM (inactive)

Give reported GI50 value for COc1ccc(OC)c([N+](=O)[O-])c1-c1nc2sc(Cl)cn2c1/C=N/N=C(N)N 25.9 µM (inactive)

Give reported GI50 value for CC(=O)NNc1nc(C)c(C(=O)NNC(=O)C(=O)Nc2ccccc2C#N)s1 > 100 µM (inactive)

Give reported GI50 value for CCc1c(O)c2c(c(O)c1C(C)=O)C(=O)c1c(cc(O)c(C(=O)O)c1C(=O)O)C2=O > 100 µM (inactive)

Give reported GI50 value for CN(C)C(=S)/N=c1\ss/c(=N/c2ccccc2)n1C > 100 µM (inactive)

Give reported GI50 value for Cc1ccccc1NC(=N)Nc1ccccc1C > 100 µM (inactive)

Give reported GI50 value for CCCCN(CC)C(=O)C(=O)C1C(=O)Nc2ccccc2[S+]1[O-] (stereo not drawn) > 100 µM (inactive)

Give reported GI50 value for Cc1ccnc(NS(=O)(=O)c2ccc(NC3=CC(=O)C(=O)c4ccccc43)cc2)n1 > 100 µM (inactive)

Give reported GI50 value for COC(=O)[C@@H]1C[C@H]2OC(=O)CC[C@]2(C)O[C@H]1[C@H]1O[C@@](C)(O)CCC[C@H]1C > 50 µM (inactive)

Give reported GI50 value for Nc1nc(SCc2ccccc2Cl)cc(C(=O)O)n1 78 µM (inactive)

Give reported GI50 value for Cc1ccc(C(=O)Nc2ccc(S(=O)(=O)O)c3cc(S(=O)(=O)O)cc(S(=O)(=O)O)c23)cc1NC(=O)c1cccc(N)c1 > 100 µM (inactive)

Give reported GI50 value for O=S(=O)(c1ccccc1)N1CCCC(c2ccccc2)CC1 (stereo not drawn) > 100 µM (inactive)
